- MEASUREMENT PROTOCOL: Primary screen of SERS intensities of CyNAMLA-functionalized AuNPs (compact Raman scanner)
- Assay type: physicochemical
- CONDITION NOTES: SERS spectra of CyNAMLA-functionalized AuNPs; excitation at 785 nm, laser power 60 mW
MEASURED PROPERTY: Raman intensity

// below: answered compounds
INSERT INTO assay_data (compound, measured_property, numeric_result) VALUES
  ('CCCN1/C(=C/C=C2\CCCC(/C=C/C3=[N+](CCCNC(=O)CCCCC4CCSS4)c4ccccc4C3(C)C)=C2N(CCc2cccc(OC)c2OC)C(C)=O)C(C)(C)c2ccccc21.O=C([O-])C(F)(F)F (centres unmarked)', 'Raman intensity', 24133),
  ('CCCN1/C(=C/C=C2\CCCC(/C=C/C3=[N+](CCCNC(=O)CCCCC4CCSS4)c4ccccc4C3(C)C)=C2N(CCCN(C)C)C(C)=O)C(C)(C)c2ccccc21.O=C([O-])C(F)(F)F (centres unmarked)', 'Raman intensity', 1735),
  ('CCCCN(C(C)=O)C1=C(/C=C/C2=[N+](CCCNC(=O)CCCCC3CCSS3)c3ccccc3C2(C)C)CCC/C1=C\C=C1\N(CCC)c2ccccc2C1(C)C.O=C([O-])C(F)(F)F (centres unmarked)', 'Raman intensity', 2487);

[I] CCCN1/C(=C/C=C2\CCCC(/C=C/C3=[N+](CCCNC(=O)CCCCC4CCSS4)c4ccccc4C3(C)C)=C2N(CCCN2CCCC2)C(C)=O)C(C)(C)c2ccccc21.O=C([O-])C(F)(F)F (centres unmarked)
[II] CCCN1/C(=C/C=C2\CCCC(/C=C/C3=[N+](CCCNC(=O)CCCCC4CCSS4)c4ccccc4C3(C)C)=C2N(CCc2ccccc2-c2ccccc2)C(C)=O)C(C)(C)c2ccccc21.O=C([O-])C(F)(F)F (centres unmarked)
[III] CCCN1/C(=C/C=C2\CCCC(/C=C/C3=[N+](CCCNC(=O)CCCCC4CCSS4)c4ccccc4C3(C)C)=C2N(Cc2ccc(OC)c(OC)c2)C(C)=O)C(C)(C)c2ccccc21.O=C([O-])C(F)(F)F (centres unmarked)
# input Arrange the 3 compounds by rising Raman intensity, starting with the smallest. Form field (ranking): labels in requested order.
# output III, II, I
(III: 2850, II: 11616, I: 18833)

[A] CCCCC(CC)CN(C(C)=O)C1=C(/C=C/C2=[N+](CCCNC(=O)CCCCC3CCSS3)c3ccccc3C2(C)C)CCC/C1=C\C=C1\N(CCC)c2ccccc2C1(C)C.O=C([O-])C(F)(F)F (centres unmarked)
[B] CCCN1/C(=C/C=C2\CCCC(/C=C/C3=[N+](CCCNC(=O)CCCCC4CCSS4)c4ccccc4C3(C)C)=C2N(CCc2ccc(OC)cc2)C(C)=O)C(C)(C)c2ccccc21.O=C([O-])C(F)(F)F (centres unmarked)
# input Of the two listed items, which has the higher Raman intensity? First: A Second: B Refer to your chosen entry by its label in the reply.
# output A

Origin of measurements: patent US9201014B2
